For each of the molecules below, state its IC50 ratio.
Target: T1, human CCR8 (Homo sapiens, UniProt P51685)
T1 construct: expressed in transfected cells; host or cells: 293 cells
Experiment: Neutralizing activity: inhibition of Ca2+ influx by 200 nM hCCL1 in human CCR8 expressing 293 cells (FLIPR), Test Example 6
Format: cell-based
Settings: Table 9; WT IC50/mutant IC50; humanized 10A11 heavy chain CDR mutants, IGKV4-1/IGHV3-73
Could you keep your reply to the number by itself?

# input What does the data say about its IC50 ratio? Entry: h10A11 (IGKV4-1/IGHV3-73 Y58F): humanized 10A11 heavy chain CDR point mutant (antibody, V domains shown) VL: DIVMTQSPDSLAVSLGERATINCRSSKSLLHSNGNTYLYWYQQKPGQPPKLLIYRMSNLASGVPDRFSGSGSGTDFTLTISSLQAEDVAVYYCMQHLEYPLTFGQGTKLEIKRT VH: EVQLVESGGGLVQPGGSLKLSCAASGFAFNTYALYWVRQASGKGLEWVGRIRSKSNNYATFYADSVKDRFTISRDDSKNTAYLQMNSLKTEDTAVYYCTRARFYYSDYGYAMDYWGQGTLVTVSS
# output 0.50

# input What does the data say about its IC50 ratio? Entry: h10A11 (IGKV4-1/IGHV3-73 T57S): humanized 10A11 heavy chain CDR point mutant (antibody, V domains shown) VL: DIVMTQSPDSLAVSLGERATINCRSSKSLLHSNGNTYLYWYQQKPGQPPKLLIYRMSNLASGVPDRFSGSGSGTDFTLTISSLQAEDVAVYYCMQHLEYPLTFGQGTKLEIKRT VH: EVQLVESGGGLVQPGGSLKLSCAASGFAFNTYALYWVRQASGKGLEWVGRIRSKSNNYASYYADSVKDRFTISRDDSKNTAYLQMNSLKTEDTAVYYCTRARFYYSDYGYAMDYWGQGTLVTVSS
# output 0.49

# input What does the data say about its IC50 ratio? Entry: h10A11 (IGKV4-1/IGHV3-73 Y99F): humanized 10A11 heavy chain CDR point mutant (antibody, V domains shown) VL: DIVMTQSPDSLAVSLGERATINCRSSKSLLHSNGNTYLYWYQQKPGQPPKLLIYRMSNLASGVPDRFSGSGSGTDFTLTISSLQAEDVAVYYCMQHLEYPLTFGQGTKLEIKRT VH: EVQLVESGGGLVQPGGSLKLSCAASGFAFNTYALYWVRQASGKGLEWVGRIRSKSNNYATYYADSVKDRFTISRDDSKNTAYLQMNSLKTEDTAVYYCTRARFYFSDYGYAMDYWGQGTLVTVSS
# output 0.80

# input What does the data say about its IC50 ratio? Entry: h10A11 (IGKV4-1/IGHV3-73 Y32F): humanized 10A11 heavy chain CDR point mutant (antibody, V domains shown) VL: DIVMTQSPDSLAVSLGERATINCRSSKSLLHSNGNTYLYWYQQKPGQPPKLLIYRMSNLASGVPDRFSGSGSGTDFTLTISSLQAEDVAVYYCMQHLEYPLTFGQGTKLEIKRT VH: EVQLVESGGGLVQPGGSLKLSCAASGFAFNTFALYWVRQASGKGLEWVGRIRSKSNNYATYYADSVKDRFTISRDDSKNTAYLQMNSLKTEDTAVYYCTRARFYYSDYGYAMDYWGQGTLVTVSS
# output 0.44

# input What does the data say about its IC50 ratio? Entry: h10A11 (IGKV4-1/IGHV3-73 N53Q): humanized 10A11 heavy chain CDR point mutant (antibody, V domains shown) VL: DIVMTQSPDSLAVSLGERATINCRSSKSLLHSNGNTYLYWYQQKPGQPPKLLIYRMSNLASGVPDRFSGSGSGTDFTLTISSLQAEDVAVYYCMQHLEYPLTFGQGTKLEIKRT VH: EVQLVESGGGLVQPGGSLKLSCAASGFAFNTYALYWVRQASGKGLEWVGRIRSKSQNYATYYADSVKDRFTISRDDSKNTAYLQMNSLKTEDTAVYYCTRARFYYSDYGYAMDYWGQGTLVTVSS
# output 0.03

# input What does the data say about its IC50 ratio? Entry: h10A11 (IGKV4-1/IGHV3-73 Y55F): humanized 10A11 heavy chain CDR point mutant (antibody, V domains shown) VL: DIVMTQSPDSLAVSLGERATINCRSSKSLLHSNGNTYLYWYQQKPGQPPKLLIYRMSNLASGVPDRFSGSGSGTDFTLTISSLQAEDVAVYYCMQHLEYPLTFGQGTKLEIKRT VH: EVQLVESGGGLVQPGGSLKLSCAASGFAFNTYALYWVRQASGKGLEWVGRIRSKSNNFATYYADSVKDRFTISRDDSKNTAYLQMNSLKTEDTAVYYCTRARFYYSDYGYAMDYWGQGTLVTVSS
# output 0.47

# input What does the data say about its IC50 ratio? Entry: h10A11 (IGKV4-1/IGHV3-73 A60V): humanized 10A11 heavy chain CDR point mutant (antibody, V domains shown) VL: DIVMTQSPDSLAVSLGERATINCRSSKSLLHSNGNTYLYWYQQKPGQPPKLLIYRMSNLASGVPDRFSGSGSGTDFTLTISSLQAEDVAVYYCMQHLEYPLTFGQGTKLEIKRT VH: EVQLVESGGGLVQPGGSLKLSCAASGFAFNTYALYWVRQASGKGLEWVGRIRSKSNNYATYYVDSVKDRFTISRDDSKNTAYLQMNSLKTEDTAVYYCTRARFYYSDYGYAMDYWGQGTLVTVSS
# output 0.67

# input What does the data say about its IC50 ratio? Entry: h10A11 (IGKV4-1/IGHV3-73 D100aE): humanized 10A11 heavy chain CDR point mutant (antibody, V domains shown) VL: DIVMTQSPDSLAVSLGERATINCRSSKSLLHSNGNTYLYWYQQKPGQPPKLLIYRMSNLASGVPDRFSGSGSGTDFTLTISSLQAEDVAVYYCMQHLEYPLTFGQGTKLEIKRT VH: EVQLVESGGGLVQPGGSLKLSCAASGFAFNTYALYWVRQASGKGLEWVGRIRSKSNNYATYYADSVKDRFTISRDDSKNTAYLQMNSLKTEDTAVYYCTRARFYYSEYGYAMDYWGQGTLVTVSS
# output 0.30
